Provide the recorded KN for the entries that follow.
tested on: LPETG (Abz-LPETGK(Dnp)-CONH2); assay: In vitro sortase kinetics HPLC assay, LPETG substrate; type: biochemical; conditions: 1 mM LPETG, eight GGG concentrations
Give the value, in units of µM, as a plain number.

Given SrtA: wild-type Staphylococcus aureus sortase A (SEQ ID NO: 1) (protein, S. aureus) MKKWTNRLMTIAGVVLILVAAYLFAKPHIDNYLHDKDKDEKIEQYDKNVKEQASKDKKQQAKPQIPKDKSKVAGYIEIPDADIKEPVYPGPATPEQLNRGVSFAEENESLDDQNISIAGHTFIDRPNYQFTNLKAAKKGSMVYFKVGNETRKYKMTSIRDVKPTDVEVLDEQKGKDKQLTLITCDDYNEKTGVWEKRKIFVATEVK , state its recorded KN. 14.3

Given eSrtA (protein) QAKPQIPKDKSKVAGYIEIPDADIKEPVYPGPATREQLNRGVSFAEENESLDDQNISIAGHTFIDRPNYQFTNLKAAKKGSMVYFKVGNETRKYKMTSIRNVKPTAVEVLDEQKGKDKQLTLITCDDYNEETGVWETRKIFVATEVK , state its recorded KN. 32.8

Given eSrtA(2A-9): P94R, S102C, A104H, E105D, K138P, K152I, N160K, K162H, T164N, D165A, K173E, I182V, K190E, T196S (protein) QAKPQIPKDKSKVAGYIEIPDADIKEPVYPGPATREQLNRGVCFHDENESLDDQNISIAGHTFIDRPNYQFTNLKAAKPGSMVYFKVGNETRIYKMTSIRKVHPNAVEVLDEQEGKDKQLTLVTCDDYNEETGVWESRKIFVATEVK , state its recorded KN. 27.1

Given eSrtA(4S-9): P94R, N98D, S102C, A104V, A118T, F122A, K134R, F144L, D160N, D165A, I182V, E189F, K190E, K196T (protein) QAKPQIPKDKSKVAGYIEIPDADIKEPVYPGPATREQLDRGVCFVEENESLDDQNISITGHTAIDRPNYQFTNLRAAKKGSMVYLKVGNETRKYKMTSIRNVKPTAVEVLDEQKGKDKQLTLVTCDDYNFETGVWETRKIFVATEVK , state its recorded KN. 295
